- Test system: MS2 coat protein
- Procedure Details: apparent KD of MS2 coat protein, switch ON state; designed switch direction (-1 OFF switch, 1 ON switch): 1; higher = weaker reporter binding
- Assay Context: FMN input: 0 or 200 uM; Eterna round: R93 (includes R88 designs)
Use 50 nM as the dividing line for apparent KD of MS2 coat protein, with the line itself on the rule met side and lower values as rule not met.

# Seq String, Assigned Category
rows = [
    ("AACAAUCUAUCUGAGGAUAUGUGUCGAAAGACAUGAGGAUCACCCAUGUCAAAACAUGGGAAGAUACAGAAGGCAGAUAGAUUGA [SS2: 1159]", "rule met"),
    ("GAGGACAUAGUAUAGGAUAUAUGAAUAAUUACAUGAGGAUCACCCAUGUGCAUUUAUAUGCGAACAUAGAAGGGUGGUAGUUAUC [SameState2 Malc#32]", "rule not met"),
    ("AAAAAACAUGAGGAUCACCCAUGUCCUCGGACAUGAGGAUAUGUACAGACUUCGGUCUGUACAGAAGGCAUGAAAA [SS1 - 1014]", "rule met"),
    ("AGAAAUAAAAGAGAGGAUAUCCAAAAGGGAACAUGAGGAUCACCCAUGUAAAUGAAAAUAAAAUGGGAGAAGGCUCAAAAUAAAG [80% More Helter Skelter 2]", "rule met"),
    ("GGGAGACAUGAGGAUCACCCAUGUGAAAACGUGUGAGGAUAUCUAUGGAAACCAUACUGUAGAGAAGGCACUUGUC [Servius Sulpicius Similis]", "rule not met"),
    ("AUAAAACAUGAGGAUCACCCAUGUAGAAAUAUGGGAGGAUAUACAAAGACGAAAGUCAAGGUAGAAGGCCUAAAAG [Mat - Same State 1 - Meechl mod - D118]", "rule not met"),
    ("GGGAGGAAGAGAGAGGAUAUCCAAAGGAAAACAUGAGGAUCACCCAUGUAAAAGGUAGGAAAUUGGGAGAAGGCUCAAAAGAGGG [salish99-ss2-038]", "rule not met"),
    ("GAAAAACAUGAGGAUCACCCAUGUGUAAACACGGGAGGAUAUACAAAGACGUAAGUCAAAGUAGAAGGCCUAAAAG [Garnet 39]", "rule not met"),
    ("AAGACACAUGAGGAUCACCCAUGUCAAGAGAGAUGAGGAUAUCUGAGUUAGUUAAGUUAAGGAGAAGGCAUGAAAA [LROPPY Same State 1 - v01_deltaG=3.81]", "rule not met"),
    ("GAAAAACAUGAGGAUCACCCAUGUAGAAAUAUGGGAGGAUAUACAAAGACGGAAGUCAAAGUAGAAGGCCUAAAAG [Mat - Same State 1 - Eli mod - D7]", "rule not met"),
    ("ACUAUACAUGAGGAUCACCCAUGUCAGGUGGGACUAGGAUAUCAAAAGCCAGAGUAAGAAUGAGAAGGAGUAGAAA [JR_SS001_Sub304]", "rule met"),
    ("AAAAAACAUGAGGAUCACCCAUGUCCUCGGACAUGAGGAUAUGUACAGACUUCGGUCUGUACAGAAGGCAUGUAAA [SS1 - 1018]", "rule met"),
]

---

- System: K4 kissing-loop RNA reporter;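 note: bound reporter read as fluorescence of individual clusters on recovered sequencing chips by microscopy, with normalized cluster intensities fitted with a binding model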
- Procedure Details: apparent KD of K4 kissing-loop reporter; higher = weaker reporter binding
- Assay Context: Eterna round: R107; input ligand: tryptophan 2.4 mM
Rule: apparent KD of K4 kissing-loop reporter under 400 nM gives f, otherwise t.

# Seq String, Assigned Category
data = [
    ("UAUGCUUGUGCUGAUACCAGUGUUAGUGAUGUUAGGACUGUCAGUAGGAUGCGUGCAUUUCACCCUUGGCAGCAGUAUCGCAGCA [theeternabot_exclusion_KL_Theo_B_48]", "f"),
    ("AAUUCAGUGAUGUUGGAAGGCAGGCGGGAUACCAGCGGAGAAUAACGCCCUUGGCAGCCCAAAUAUCCCAAAUAGAUAAUAGUUC [Same State - Theophylline A (Freestyle 2)]", "t"),
    ("UACUUAUAGUUAUUUCUAAAUUUAUUUAGUCAGGAUAUCGAAUAGUCGAGAAGGGACAUAAUCAAGUGAUGUUUGAUUAUUCAAA [JR_SSFMNA_Sub023]", "f"),
    ("CCUUUCUGUUACGAUACCAGUCUAAUAUAUUUGAUCAAUACCCUCGCCGAGUGAUGUUCGGACCCUUGGCAGCGUCUGGGACAGG [aazwmullin]", "t"),
    ("GGUAGCAUGGCGGCCGCCACUAUCCUUCAUGGUUGACAUUAAGGAUAGCAUAGUGAUGUUAUGAAUAGGACCGGGCCAUGCUACC", "f"),
    ("GCGUGGCAGGCGGCCGCCACUCGGACGAGUCACAGUGAUGUUGUGGUUUGCCAGUCGUCUUCAUCGAGGACCGGGUUUGUUGCGC [Exclusion Tryptophan B GF 18]", "f"),
]
